measurement target: Somatostatin receptor
assay details: Compound was tested for its inhibitory effect against somatostatin receptor in rat cortex membrane using [125I]Tyr3-octreotide as the radioligand
Type: cell membranes
readout name: IC50 (µM)
Answers are plain numbers, in µM.

The examples below pair each entry with its known result.
1) NCCCCCN1C(=O)C(Cc2c[nH]c3ccccc23)N(C(=O)c2ccccc2)Cc2ccccc21 (stereo in doubt; 2): 7
2) NCCCCCN1C(=O)C(Cc2c[nH]c3ccccc23)N(C(=O)c2ccccc2)Cc2ccccc21 (single isomer, unassigned; (-)): 6.5
3) C[C@H](N)C(=O)NCC(=O)N[C@@H]1CSSC[C@@H](C(=O)O)NC(=O)[C@H](CO)NC(=O)[C@@H]([C@@H](C)O)NC(=O)[C@H](Cc2ccccc2)NC(=O)[C@@H]([C@@H](C)O)NC(=O)[C@H](CCCCN)NC(=O)[C@H](Cc2c[nH]c3ccccc23)NC(=O)[C@H](Cc2ccccc2)NC(=O)[C@@H](Cc2ccccc2)NC(=O)[C@H](CC(N)=O)NC(=O)[C@@H](CCCCN)NC1=O: 0.00043

# evaluate next
[in] What does the data say about its IC50? Entry: NCCCCCN1C(=O)C(Cc2c[nH]c3ccccc23)N(C(=O)c2ccccc2)Cc2ccccc21 (stereo in doubt; (+)2)
[out] 8.2
